Provenance of the data: BigSolDB 2.1

# SETTINGS: in n-heptane, 326.05 K
MEASURED_QUANTITY: solubility (mole fraction)

INSERT INTO results (line_notation, value_observed) VALUES
  ('CC(=O)c1c(O)ccc2ccccc12', 0.115);

###

# SETTINGS: in n-heptane, 295.25 K
MEASURED_QUANTITY: solubility (mole fraction)

INSERT INTO measurements (line_notation, measured_quantity, value_observed) VALUES
  ('CC(=O)c1ccc2ccccc2c1O', 'solubility (mole fraction)', 0.0099);

###

# SETTINGS: in cyclohexane, 296.55 K
MEASURED_QUANTITY: solubility (mole fraction)

INSERT INTO measurements (line_notation, value_observed) VALUES
  ('CC(=O)c1ccc2ccccc2c1O', 0.0092);

###

# SETTINGS: in n-heptane, 344.35 K
MEASURED_QUANTITY: solubility (mole fraction)

INSERT INTO assay_data (line_notation, value_observed) VALUES
  ('CC(=O)c1ccc2ccccc2c1O', 0.0898);

###

# SETTINGS: in cyclohexane, 321.85 K
MEASURED_QUANTITY: solubility (mole fraction)

INSERT INTO assay_data (line_notation, value_observed) VALUES
  ('CC(=O)c1c(O)ccc2ccccc12', 0.19);

###

# SETTINGS: in n-heptane, 302.4 K
MEASURED_QUANTITY: solubility (mole fraction)

INSERT INTO results (line_notation, value_observed) VALUES
  ('CC(=O)c1c(O)ccc2ccccc12', 0.0245);

###

# SETTINGS: in cyclohexane, 329.65 K
MEASURED_QUANTITY: solubility (mole fraction)

INSERT INTO results (line_notation, value_observed) VALUES
  ('CC(=O)c1ccc2ccccc2c1O', 0.0511);

###

# SETTINGS: in ethanol, 314.65 K
MEASURED_QUANTITY: solubility (mole fraction)

INSERT INTO measurements (line_notation, measured_quantity, value_observed) VALUES
  ('CC(=O)c1c(O)ccc2ccccc12', 'solubility (mole fraction)', 0.321);

###

# SETTINGS: in n-butanol, 303.95 K
MEASURED_QUANTITY: solubility (mole fraction)

INSERT INTO assay_data (line_notation, value_observed) VALUES
  ('CC(=O)c1c(O)ccc2ccccc12', 0.155);

###

# SETTINGS: in n-hexane, 293.45 K
MEASURED_QUANTITY: solubility (mole fraction)

INSERT INTO measurements (line_notation, value_observed) VALUES
  ('CC(=O)c1ccc2ccccc2c1O', 0.0077);

###

# SETTINGS: in n-butanol, 335.75 K
MEASURED_QUANTITY: solubility (mole fraction)

INSERT INTO measurements (line_notation, measured_quantity, value_observed) VALUES
  ('CC(=O)c1ccc2ccccc2c1O', 'solubility (mole fraction)', 0.0788);

###

# SETTINGS: in n-hexane, 289.75 K
MEASURED_QUANTITY: solubility (mole fraction)

INSERT INTO measurements (line_notation, measured_quantity, value_observed) VALUES
  ('CC(=O)c1ccc2ccccc2c1O', 'solubility (mole fraction)', 0.0065);

###

# SETTINGS: in ethanol, 299.95 K
MEASURED_QUANTITY: solubility (mole fraction)

INSERT INTO assay_data (line_notation, value_observed) VALUES
  ('CC(=O)c1ccc2ccccc2c1O', 0.0075);
